Quick reference for pKi among some molecules
Target chain: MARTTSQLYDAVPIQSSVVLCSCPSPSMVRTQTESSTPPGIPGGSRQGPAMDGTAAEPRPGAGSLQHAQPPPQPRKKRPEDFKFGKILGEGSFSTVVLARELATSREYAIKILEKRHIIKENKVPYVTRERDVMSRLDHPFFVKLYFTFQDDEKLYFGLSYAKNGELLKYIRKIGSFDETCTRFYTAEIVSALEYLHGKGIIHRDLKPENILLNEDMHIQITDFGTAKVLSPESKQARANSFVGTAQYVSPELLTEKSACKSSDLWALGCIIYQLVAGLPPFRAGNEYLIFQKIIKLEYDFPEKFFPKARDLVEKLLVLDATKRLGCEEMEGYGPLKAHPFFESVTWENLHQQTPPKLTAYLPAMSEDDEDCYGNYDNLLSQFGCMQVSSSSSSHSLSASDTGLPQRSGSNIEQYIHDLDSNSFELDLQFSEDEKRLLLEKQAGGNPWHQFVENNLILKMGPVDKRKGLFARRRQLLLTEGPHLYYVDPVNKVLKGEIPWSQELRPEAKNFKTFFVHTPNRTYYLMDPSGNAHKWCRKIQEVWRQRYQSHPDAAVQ
pKi: −log10 of the molar value.
OBSERVABLE: pKi

>>> observed_result("NCC(C(=O)Nc1ccc2[nH]nc(-c3ccccc3)c2c1)c1ccc(Cl)c(Cl)c1 (centres unmarked) [Compound I-231]")
"> 6.00"
>>> observed_result("NCCC(C(=O)Nc1ccc2[nH]nc(CNC(=O)c3ccccc3)c2c1)c1ccccc1 (centres unmarked) [Compound I-1042]")
"< 5.52"
>>> observed_result("NCCC(C(=O)Nc1ccc2[nH]nc(NC(=O)c3cc(F)cc(F)c3)c2c1)c1ccc(Cl)c(Cl)c1 (centres unmarked) [Compound I-201]")
"< 5.52"
>>> observed_result("Cc1n[nH]c2ccc(NC(=O)C(CCN)c3ccc(Cl)s3)cc12 (centres unmarked) [Compound I-139]")
"> 6.00"
>>> observed_result("Cc1cc(NC(=O)C(CCN)c2ccc(Cl)c(Cl)c2)cc2cn[nH]c12 (centres unmarked) [Compound I-147]")
"5.52 to 6.00"
>>> observed_result("Cc1n[nH]c2ccc(NC(=O)C(CCN)c3ccccc3F)cc12 (centres unmarked) [Compound I-1026]")
"> 6.00"
>>> observed_result("NCCC(C(=O)Nc1ccc2[nH]nc(NC(=O)Nc3ccccc3)c2c1)c1ccc(Cl)c(Cl)c1 (centres unmarked) [Compound I-176]")
"5.52 to 6.00"
>>> observed_result("NCCC(C(=O)Nc1ccc2[nH]nc(-c3ccc(C(=O)O)cc3)c2c1)c1ccccc1 (centres unmarked) [Compound I-237]")
"> 6.00"

====

Quick reference for Ki among some compounds
Target chain: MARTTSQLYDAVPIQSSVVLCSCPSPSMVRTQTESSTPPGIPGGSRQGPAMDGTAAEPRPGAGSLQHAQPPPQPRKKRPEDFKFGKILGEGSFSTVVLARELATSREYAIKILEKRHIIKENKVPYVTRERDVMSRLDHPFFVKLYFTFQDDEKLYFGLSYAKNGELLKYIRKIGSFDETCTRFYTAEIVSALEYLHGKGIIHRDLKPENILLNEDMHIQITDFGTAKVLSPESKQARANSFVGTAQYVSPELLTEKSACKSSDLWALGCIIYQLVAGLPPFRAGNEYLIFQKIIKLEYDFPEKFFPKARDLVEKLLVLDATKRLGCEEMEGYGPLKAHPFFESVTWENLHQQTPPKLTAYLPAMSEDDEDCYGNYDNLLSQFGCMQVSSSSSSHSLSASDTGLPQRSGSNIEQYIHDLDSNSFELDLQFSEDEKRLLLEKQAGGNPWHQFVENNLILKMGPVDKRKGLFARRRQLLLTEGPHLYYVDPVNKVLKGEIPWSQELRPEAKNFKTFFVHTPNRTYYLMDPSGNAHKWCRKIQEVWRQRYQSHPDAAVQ
OBSERVABLE: Ki

>>> observed_result("CNCCC(C(=O)Nc1ccc2[nH]ncc2c1)c1ccc(Cl)c(Cl)c1 (stereo not shown) [Compound I-153]")
"> 3000 nM"
>>> observed_result("NCCC(C(=O)Nc1ccc2[nH]nc(-c3ccc(-c4ccccc4)cc3)c2c1)c1ccccc1 (stereo not shown) [Compound I-236]")
"< 1000 nM"
>>> observed_result("NCCC(C(=O)Nc1ccc2[nH]nc(NC(=O)c3cccc(C(F)(F)F)c3)c2c1)c1ccc(Cl)c(Cl)c1 (stereo not shown) [Compound I-200]")
"> 3000 nM"
>>> observed_result("Cc1n[nH]c2ccc(NC(=O)C(CCN)c3ccc(Cl)c(Cl)c3)cc12 (stereo not shown) [Compound I-117]")
"< 1000 nM"
>>> observed_result("COc1cccc(C(CCN)C(=O)Nc2ccc3[nH]nc(Nc4cccc(C(N)=O)c4)c3c2)c1 (stereo not shown) [Compound I-1030]")
"> 3000 nM"
>>> observed_result("CCc1ccc(C(=O)Nc2n[nH]c3ccc(NC(=O)C(CCN)c4ccc(Cl)c(Cl)c4)cc23)cc1 (stereo not shown) [Compound I-187]")
"1000 to 3000 nM"
>>> observed_result("NCC[C@H](C(=O)Nc1ccc2[nH]nc(-c3ccc(C(=O)O)cc3)c2c1)c1ccccc1 [Compound I-263]")
"< 1000 nM"
>>> observed_result("NCCC(C(=O)Nc1ccc2[nH]nc(-c3cccc(F)c3)c2c1)c1ccccc1 (stereo not shown) [Compound I-240]")
"< 1000 nM"
>>> observed_result("NCC(C(=O)Nc1ccc2[nH]ncc2c1)c1ccc(Cl)cc1 (stereo not shown) [Compound I-242]")
"< 1000 nM"
>>> observed_result("NCCC(C(=O)Nc1ccc2[nH]nc(Nc3cccc(F)c3)c2c1)c1ccccc1 (stereo not shown) [Compound I-1039]")
"> 3000 nM"
>>> observed_result("CN(C)CC(C(=O)Nc1ccc2[nH]ncc2c1)c1ccc(Cl)c(Cl)c1 (stereo not shown) [Compound I-227]")
"> 3000 nM"
>>> observed_result("NCCC(C(=O)Nc1ccc2[nH]nc(-c3cccc(-c4ccccc4)c3)c2c1)c1ccccc1 (stereo not shown) [Compound I-228]")
"1000 to 3000 nM"
>>> observed_result("NCCC(C(=O)Nc1ccc2[nH]ncc2c1)c1ccccc1F (stereo not shown) [Compound I-1032]")
"< 1000 nM"
>>> observed_result("Cc1n[nH]c2ccc(NC(=O)C(CCN)c3ccc(Cl)c(Cl)c3F)cc12 (stereo not shown) [Compound I-136]")
"< 1000 nM"
>>> observed_result("NCCC(C(=O)Nc1ccc2[nH]nc(Cl)c2c1)c1ccc(Cl)c(Cl)c1 (stereo not shown) [Compound I-121]")
"< 1000 nM"
>>> observed_result("NCCC(C(=O)Nc1cc(Br)c2[nH]nc(Cl)c2c1)c1ccc(Cl)c(Cl)c1 (stereo not shown) [Compound I-145]")
"> 3000 nM"

====

Quick reference for pKi among some molecules
- TARGET_OR_TEST_SYSTEM: PDK-1 (Homo sapiens, UniProt O15530)
pKi: −log10 of the molar value.
OBSERVABLE: pKi

>>> observed_result("NCCC(C(=O)Nc1ccc2[nH]ncc2c1)c1ccc2ccccc2c1 (centres unmarked)")
"< 5.52"
>>> observed_result("CC(=O)Nc1cccc(C(CCN)C(=O)Nc2ccc3[nH]ncc3c2)c1 (centres unmarked)")
"< 5.52"
>>> observed_result("Cc1n[nH]c2ccc(NC(=O)[C@@H](CCN)c3cccc(Cl)c3F)cc12")
"> 6.00"
>>> observed_result("NCCC(C(=O)Nc1ccc2[nH]nc(NC(=O)c3ccccn3)c2c1)c1ccc(Cl)c(Cl)c1 (centres unmarked)")
"> 6.00"
>>> observed_result("NCCC(C(=O)Nc1ccc2[nH]nc(NC(=O)c3ccco3)c2c1)c1ccccc1 (centres unmarked)")
"> 6.00"
>>> observed_result("NCCC(C(=O)Nc1ccc2[nH]nc(NC(=O)C3CCCCC3)c2c1)c1ccccc1 (centres unmarked)")
"< 5.52"
>>> observed_result("NCCC(C(=O)Nc1ccc2[nH]nc(Nc3cccc(OCc4ccccc4)c3)c2c1)c1ccc(Cl)c(Cl)c1 (centres unmarked)")
"< 5.52"
>>> observed_result("NCCC(C(=O)Nc1ccc2[nH]ncc2c1)c1cc(C(F)(F)F)cc(C(F)(F)F)c1 (centres unmarked)")
"< 5.52"

====

- TARGET_OR_TEST_SYSTEM: AKT-3 (Homo sapiens)
- Sequence (Q9Y243 whole entry): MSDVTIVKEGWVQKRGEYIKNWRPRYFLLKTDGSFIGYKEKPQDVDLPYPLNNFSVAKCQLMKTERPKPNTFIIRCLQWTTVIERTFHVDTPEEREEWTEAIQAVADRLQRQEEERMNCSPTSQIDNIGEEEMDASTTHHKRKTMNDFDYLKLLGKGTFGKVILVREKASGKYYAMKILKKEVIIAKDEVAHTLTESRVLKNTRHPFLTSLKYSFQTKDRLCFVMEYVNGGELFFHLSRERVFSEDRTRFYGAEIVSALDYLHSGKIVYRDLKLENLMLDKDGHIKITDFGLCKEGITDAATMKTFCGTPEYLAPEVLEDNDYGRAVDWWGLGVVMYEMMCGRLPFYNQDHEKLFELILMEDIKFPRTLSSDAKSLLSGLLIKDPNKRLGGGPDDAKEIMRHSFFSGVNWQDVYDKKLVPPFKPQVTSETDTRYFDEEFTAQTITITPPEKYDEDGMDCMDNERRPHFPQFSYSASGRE
- TEST_METHOD_NOTES: AKT-3 inhibition assay (standard coupled enzyme assay)
- Type: biochemical
- MEASUREMENT_SETUP: 170 μM ATP, 200 μM peptide, 45 nM AKT, 30° C.
OBSERVABLE: Ki

>>> observed_result("Cc1cc(NC(=O)C(CCN)c2ccc(Cl)c(Cl)c2)cc2cn[nH]c12 (stereo not shown) [Compound I-147]")
"< 1 µM"
>>> observed_result("COC(=O)c1ccc(-c2n[nH]c3ccc(NC(=O)C(CCN)c4ccccc4)cc23)cc1 (stereo not shown) [Compound I-235]")
"1 to 10 µM"
>>> observed_result("NCCC(C(=O)Nc1ccc2[nH]nc(NCc3ccccc3)c2c1)c1ccc(Cl)c(Cl)c1 (stereo not shown) [Compound I-158]")
"1 to 10 µM"
>>> observed_result("NCCC(C(=O)Nc1ccc2[nH]nc(NS(=O)(=O)c3ccccc3)c2c1)c1ccc(Cl)c(Cl)c1 (stereo not shown) [Compound I-190]")
"10 to 20 µM"
